These measurements were taken from paper PMC12136788.

Target: T1, UNK ZnF1-3 (human, UniProt Q9C0B0 31-174)
T1 sequence: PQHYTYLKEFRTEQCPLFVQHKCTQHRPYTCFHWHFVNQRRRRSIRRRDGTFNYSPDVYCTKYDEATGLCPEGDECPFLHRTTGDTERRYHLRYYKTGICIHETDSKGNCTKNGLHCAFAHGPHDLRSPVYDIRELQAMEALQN
Assay: nsRBNS (natural sequence RNA bind-n-seq); RBNS binding buffer (assumed for nsRBNS): 25 mM Tris pH 7.5, 150 mM KCl, 3 mM MgCl2, 0.01% Triton X-100, 500 ug/ml BSA, 20 U/ml SUPERase-In, 4 C; UNK is unkempt and MSI1 is Musashi-1; names of the RNAs are library labels; protein concentration not given here; high values mean tight binding
In all, about 24,000 sequences were measured (“enrichment r”: median about 0.99, highest 2% from about 3.7 on). The list comes from a sample in which the highest values are over-represented; it also holds close analogues and randomly drawn sequences.
assayMetric: binding signal (enrichment R)

binder	testResult
chr9:56975896:56975897:+_ENSMUSG00000042557_ENSMUST00000167715|mus_hu|FALSE|FALSE (ssRNA) RNA: GGGAGUUCUACAGUCCGACGAUCACAUCAAAGCAUAUUUCUUUUAAUAAAAAAUUGACAGUAUGUACAUUAUGUACAAAAAAACAAGUUAAAAUUGUGUGUGUGUGUGCGUGUGUGUGUCAGAGAGUAAAGCUGGUGGAUGGCCAACAGAGGAUUGAGCAUCA	5.76
chr16:30313237:30313238:-_ENSMUSG00000022533_ENSMUST00000100013|mus_hu|FALSE|FALSE (ssRNA) RNA: GGGAGUUCUACAGUCCGACGAUCCAACCCUGAGGGAGACACACAUUAAAAAUCUUGUUAUUUAUUUAAAAAGUUAAAAAGUUACAUAUCAUUAUUUAACAAUUACUUUCCCAGACAUUUCUGUCCUUUAAGUAUGUGCAUAAACAACAGAGGAUUGAGCAUCA	3.61
chr1:58468927:58468928:-_ENSMUSG00000026034_ENSMUST00000148330|mus_mus|mus_mus_mus_hu_False|28_48 (ssRNA) RNA: GGGAGUUCUACAGUCCGACGAUCAAUUACUGAAAAAGAUGUUCAUUACCUUAGCUAUGUACUUAAUGAACCAAAUUACCCAAACAACAUAAAAUGUGCAAUAUAAAAAGCUAUACAAUUUACAAAGCUGUACAAAAUAACUUACAACAGAGGAUUGAGCAUCA	0.529
chr16:30313237:30313238:-_ENSMUSG00000022533_ENSMUST00000100013|mus_mus|FALSE|FALSE (ssRNA) RNA: GGGAGUUCUACAGUCCGACGAUCAACAACCCUGAGGGAGACCCACAUUAAAAAAUCUUAUUUAUUUAAAAAGUUAAAAAGCUACAUAUCAUUAUUUAACAAUUACUUUACCAGACAUUUCUGUCCUUUAAGUAUGUGCAUAAACAACAGAGGAUUGAGCAUCA	4.91
chr17:60770872:60770873:+_ENSG00000011028_ENST00000303375|hu_hu|hu_hu_hu_mus_True|48_68 (ssRNA) RNA: GGGAGUUCUACAGUCCGACGAUCUCUUUAAAAAAAAAAAAAAAAAGACAAACAAUAAUAGCACAUUAUUUAAAAAAAGAACUACAAAGAAAGGGCCGCUUUGAGUUUUUGUUCACAUCGUCCUGCACUGGGACACGGGGACUGCAACAGAGGAUUGAGCAUCA	5.29
chr7:135612270:135612271:-_ENSG00000105887_ENST00000393085|hu_mus|hu_hu_hu_mus_False|38_88 (ssRNA) RNA: GGGAGUUCUACAGUCCGACGAUCGUUUUUUUCUGAGAUGUUAAAUAUUCAGUGGAGGGAAAACAAAACUUAACCUUUUAUUAAUGCGUGUUGUACCAGAAAGCAAAAUUUUAGCUUCAUUUAUUCAAAAAUAUUAACAUUAAGCAACAGAGGAUUGAGCAUCA	4.08
chr7:135612270:135612271:-_ENSG00000105887_ENST00000393085|hu_mus|hu_hu_hu_mus_False|28_58 (ssRNA) RNA: GGGAGUUCUACAGUCCGACGAUCGUUUUUUUCUGAGAUGUUAAAUAGUACUUCAGUGGAAAACAAAACUUAACCUUUCGCUAAUGCGUGUUGUACCAAAAGCAGACCAUGGUUUUACAUUUAUUCAAAAAUAUUAACAUUAAGCAACAGAGGAUUGAGCAUCA	1.03
